Origin of values: patent US8686022B2

Form field: solubility at 2 h (one value per entry).
measurementProtocol: Determining the solubility (saturated solution in McIlvaine buffer pH 7.4, UV spectroscopy)
Type: physicochemical
testContext: pH 7.4, aqueous buffer, thermodynamic from solid, shaken 2 hours, 0.75 mg solid in 0.75 ml

See these solved cases before continuing.
COc1c(NC(=O)c2cc3cccc(CN4CCN(C(=O)CN5CC[C@@H](N(C)C)C5)CC4)c3n2C)cc(C(C)(C)C)cc1NS(C)(=O)=O: > 1000 µg/mL
COc1c(NC(=O)c2cc3cccc(CN4CCN(C(=O)[C@@H]5CCCN5C)CC4)c3n2C)cc(C(C)C)cc1NS(C)(=O)=O: > 1000 µg/mL
COc1c(NC(=O)c2cc3cccc(CN4CCN(C(=O)CC5CC5)CC4)c3n2C)cc(C(C)(C)C)cc1NS(C)(=O)=O [Va, reference compound]: < 1 µg/mL

Could you now look at the following compound, please?
Retrieve solubility at 2 h measured for COc1c(NC(=O)c2cc3cccc(CN4CCN(C(=O)C5CC5)CC4)c3n2C)cc(C(C)(C)C)cc1NS(C)(=O)=O [Vc, reference compound] and print it.
< 1 µg/mL
